System: RARb:RXRa (NR concentration 270 nM, RXRa partner concentration 90 nM)
Experiment: PBM binding z-score (relative to random genomic background probes); higher = stronger binding; sequences stand for … in GC…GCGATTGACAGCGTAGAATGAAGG
reported_metric: PBM binding z-score
Just the number.

For the sequence shown here, `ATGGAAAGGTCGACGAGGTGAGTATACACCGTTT` , give the reported PBM binding z-score.
3.73

Field request: PBM binding z-score | item: `ATGTCTAGGTAACCAAGTTCAGTGAATGCCGAAC`
1.21

Which value of PBM binding z-score has been reported for `TAGCCTAGGTCACGCGGGCCAGTATAGTGTCGGC` in the records?
4.33

Quick check: PBM binding z-score of `CCTATTAGTAGACCATAAGGGCAACCGAAGCTCG` ?
1.25

Query (sequence): `TGTTGTAGATCAAAGGTTAAGAAAGCCGAAGCCT` ; field requested: PBM binding z-score
1.89

For the sequence `TCTTGTAGATCAACAGGAGTTTAAGAAAGATCGA` , what PBM binding z-score is on record?
0.0376

Data request, read-out PBM binding z-score, for `CCTTACGGGTCATGGTTATAGCACGGGTGGTACG`
3.64

# get_value(readout='PBM binding z-score', item= `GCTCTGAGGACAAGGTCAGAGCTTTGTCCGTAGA` )
3.61

Which PBM binding z-score value belongs to `ACAGACAGGTGAGTGAAGGTTACTCAGCTGGACG` ?
1.15

For the sequence `ATCGAAAGGTCGAAGGTGAGAATACCCACCCGAA` , what PBM binding z-score is on record?
3.83

So what does the record say about PBM binding z-score for `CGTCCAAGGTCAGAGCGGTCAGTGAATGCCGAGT` ?
4.58

Record request: PBM binding z-score value, item `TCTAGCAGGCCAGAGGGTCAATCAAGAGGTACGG`
2.25

Where these numbers come from: the supplement of paper PMC6555819
